# Assay: Pharmacokinetics in tumor-bearing KPC mice after 25 mg/kg single or multiple dose oral gavage
# Type: in vivo
# Condition: KPC, mouse; spleen/plasma; day 14, multiple PO doses 25 mg/kg/day; read-out: AUC0–24h ratio (tissue/plasma)
Measured Metric: Kp
Provide a numeric answer; units are not to be included.

Which Kp is reported for this compound? N=c1c2c(-c3ccccc3)c(-c3ccccc3)n(Cc3ccccc3)c2ncn1[C@H]1CC[C@H](O)CC1 30

* * *

# Assay: Steady-state PK in KPC mice fed metarrestin-infused chow
# Type: in vivo
# Condition: KPC, mouse, po; liver; day 10, chow, target dose 10 mg/kg/day
Measured Metric: Tmax (h)
State just the number; it will be interpreted in h.

Which Tmax is reported for this compound? N=c1c2c(-c3ccccc3)c(-c3ccccc3)n(Cc3ccccc3)c2ncn1[C@H]1CC[C@H](O)CC1 [metarrestin] 12

* * *

# Assay: Pharmacokinetics in C57BL/6 mice after single IV and PO administration
# Assay type: in vivo
# Condition: C57BL/6, mouse; plasma; 10 mg/kg PO single dose
Measured Metric: AUC(0-inf) (µg·h/mL)
State just the number; it will be interpreted in µg·h/mL.

Which AUC(0-inf) is reported for this molecule? N=c1c2c(-c3ccccc3)c(-c3ccccc3)n(Cc3ccccc3)c2ncn1[C@H]1CC[C@H](O)CC1 4.79

* * *

# Assay: Pharmacokinetics in C57BL/6 mice after single IV and PO administration
# Type: in vivo
# Condition: C57BL/6, mouse, liver, po, 3 mg/kg; 3 mg/kg PO single dose
Measured Metric: half-life (h)
State just the number; it will be interpreted in h.

Which half-life is reported for this molecule? N=c1c2c(-c3ccccc3)c(-c3ccccc3)n(Cc3ccccc3)c2ncn1[C@H]1CC[C@H](O)CC1 4.7

* * *

# Assay: Steady-state PK in KPC mice fed metarrestin-infused chow
# Type: in vivo
# Condition: KPC, mouse, po; spleen; day 10, chow, target dose 10 mg/kg/day
Measured Metric: Tmax (h)
State just the number; it will be interpreted in h.

Which Tmax is reported for this compound? N=c1c2c(-c3ccccc3)c(-c3ccccc3)n(Cc3ccccc3)c2ncn1[C@H]1CC[C@H](O)CC1 15

* * *

# Assay: Pharmacokinetics in tumor-bearing KPC mice after 25 mg/kg single or multiple dose oral gavage
# Assay type: in vivo
# Condition: KPC, mouse; plasma; day 14, multiple PO doses 25 mg/kg/day
Measured Metric: half-life (h)
State just the number; it will be interpreted in h.

Which half-life is reported for this compound? N=c1c2c(-c3ccccc3)c(-c3ccccc3)n(Cc3ccccc3)c2ncn1[C@H]1CC[C@H](O)CC1 8.2

* * *

# Assay: Pharmacokinetics in C57BL/6 mice after single IV and PO administration
# Format: in vivo
# Condition: C57BL/6, mouse, plasma, intravenous, oral, 10 mg/kg, low doses of 3 and 10 mg/kg, span over groups
Measured Metric: half-life

Which half-life is reported for this molecule? N=c1c2c(-c3ccccc3)c(-c3ccccc3)n(Cc3ccccc3)c2ncn1[C@H]1CC[C@H](O)CC1 5 to 5.6 h

* * *

# Assay: Steady-state PK in KPC mice fed metarrestin-infused chow
# Assay type: in vivo
# Condition: KPC, mouse, plasma, oral; 9 hr; day 10, 10 mg/kg/day (70 ppm) chow; read-out: Plasma concentration
Measured Metric: concentration at 9 h (nM)
State just the number; it will be interpreted in nM.

Which concentration at 9 h is reported for this compound? N=c1c2c(-c3ccccc3)c(-c3ccccc3)n(Cc3ccccc3)c2ncn1[C@H]1CC[C@H](O)CC1 500

// provenance: paper PMC6267684
